System: 521955-158-R2-J5-PDC complex spheroids, viability;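 further: spheroids also contain HUVEC endothelial cells and mesenchymal stem cells as stroma; compound exposure lasted seven days before the viability read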
experiment summary: Anticancer human tumor 521955-158-R2-J5-PDC patient-derived pancreatic carcinoma cell line growth inhibition [RAS]
applied conditions: second compound 0.003 µM; first compound 0.0316 µM; stronger effect = lower value
Source text: RAS pathway inhibitors in Combinations in Complex Spheroids A high-throughput screen of multi-cell type tumor spheroids was designed to identify active combinations of RAS pathway inhibitors and targeted small molecules. Complex spheroids include a stromal component modeled by human endothelial cells (HUVEC) and fibroblasts modeled by human mesenchymal stem cells (MSCs). […] Compounds. […] If the clinical Cmax for an agent had not been determined, the highest concentration tested was 10 microM. […]
assay metric: viability, T/C (%)
Number only, in %; omit the unit.

Exam item: Would you mind telling me what viability, T/C value was observed for CCC(CC)c1cc(NC2CCC(N)C2)n2nccc2n1 (centres undefined) + CCn1c(-c2cc(N3CCN(C)CC3)cnc2C(C)OC)c2c3cc(ccc31)-c1csc(n1)CC(NC(=O)C1CC1C)C(=O)N1CCCC(N1)C(=O)OCC(C)(C)C2 ?
Marked response: 47.5

Exam item: // viability, T/C lookup, key: C=CC(=O)N1CCN(c2nc(OCC3CCCN3C)nc3c(F)c(-c4nc(N)cc(C)c4C(F)(F)F)c(Cl)cc23)C(C)C1 (centres undefined) + CCn1c(-c2cccnc2C(C)OC)c2c3cc(ccc31)N1CCOC(CC(NC(=O)C(C(C)C)N(C)C(=O)C3(F)CCN(C(=O)C#CC(C)(C)N(C)C)CC3)C(=O)N3CCCC(N3)C(=O)OCC(C)(C)C2)C1
Marked response: 107

Exam item: Entry CCN1CCN(Cc2ccc(Nc3ncc(F)c(-c4cc(F)c5nc(C)n(C(C)C)c5c4)n3)nc2)CC1 + CCn1c(-c2cccnc2C(C)OC)c2c3cc(ccc31)N1CCOC(CC(NC(=O)C(C(C)C)N(C)C(=O)C3(F)CCN(C(=O)C#CC(C)(C)N(C)C)CC3)C(=O)N3CCCC(N3)C(=O)OCC(C)(C)C2)C1 : reported viability, T/C = ?
Marked response: 81.9

Exam item: What does the data say about its viability, T/C? Entry: CC1(O)CCCC1n1c(=O)c(C(F)F)cc2cnc(NC3CCN(S(C)(=O)=O)CC3)nc21 (centres undefined) + CCn1c(-c2cccnc2C(C)OC)c2c3cc(ccc31)N1CCOC(CC(NC(=O)C(C(C)C)N(C)C(=O)C3(F)CCN(C(=O)C#CC(C)(C)N(C)C)CC3)C(=O)N3CCCC(N3)C(=O)OCC(C)(C)C2)C1
Marked response: 89.5

Exam item: Please look up its viability, T/C: CC(C)n1nc(-c2ccc3oc(N)nc3c2)c2c(N)ncnc21 + CCn1c(-c2cccnc2C(C)OC)c2c3cc(ccc31)N1CCOC(CC(NC(=O)C(C(C)C)N(C)C(=O)C3(F)CCN(C(=O)C#CC(C)(C)N(C)C)CC3)C(=O)N3CCCC(N3)C(=O)OCC(C)(C)C2)C1
Marked response: 41.5

Exam item: Entry CC(=O)OC12COC1CC(O)C1(C)C(=O)C(O)C3=C(C)C(OC(=O)C(O)C(NC(=O)OC(C)(C)C)c4ccccc4)CC(O)(C(OC(=O)c4ccccc4)C21)C3(C)C (centres undefined) + CCn1c(-c2cccnc2C(C)OC)c2c3cc(ccc31)N1CCOC(CC(NC(=O)C(C(C)C)N(C)C(=O)C3(F)CCN(C(=O)C#CC(C)(C)N(C)C)CC3)C(=O)N3CCCC(N3)C(=O)OCC(C)(C)C2)C1 has what viability, T/C?
Marked response: 31.7

Exam item: What does the record list as viability, T/C for CC(Nc1ccc2c(c1)OCCn1cc(N3C(=O)OCC3C(F)F)nc1-2)C(N)=O (centres undefined) + CCn1c(-c2cccnc2C(C)OC)c2c3cc(ccc31)N1CCOC(CC(NC(=O)C(C(C)C)N(C)C(=O)C3(F)CCN(C(=O)C#CC(C)(C)N(C)C)CC3)C(=O)N3CCCC(N3)C(=O)OCC(C)(C)C2)C1 ?
Marked response: 59.7

Exam item: Suppose we examine the compound CCN1CCN(Cc2ccc(Nc3ncc(F)c(-c4cc(F)c5nc(C)n(C(C)C)c5c4)n3)nc2)CC1 + CCn1c(-c2cc(N3CCN(C)CC3)cnc2C(C)OC)c2c3cc(ccc31)-c1csc(n1)CC(NC(=O)C1CC1C)C(=O)N1CCCC(N1)C(=O)OCC(C)(C)C2 ; what viability, T/C value has been reported?
Marked response: 41.2

Exam item: GET /values?readout=viability, T/C&item= CC(=O)OC12COC1CC(O)C1(C)C(=O)C(O)C3=C(C)C(OC(=O)C(O)C(NC(=O)OC(C)(C)C)c4ccccc4)CC(O)(C(OC(=O)c4ccccc4)C21)C3(C)C (centres undefined) + CCn1c(-c2cc(N3CCN(C)CC3)cnc2C(C)OC)c2c3cc(ccc31)-c1csc(n1)CC(NC(=O)C1CC1C)C(=O)N1CCCC(N1)C(=O)OCC(C)(C)C2
Marked response: 25.7

Exam item: Sample CCC(CC)c1cc(NC2CCC(N)C2)n2nccc2n1 (centres undefined) + CCn1c(-c2cccnc2C(C)OC)c2c3cc(ccc31)N1CCOC(CC(NC(=O)C(C(C)C)N(C)C(=O)C3(F)CCN(C(=O)C#CC(C)(C)N(C)C)CC3)C(=O)N3CCCC(N3)C(=O)OCC(C)(C)C2)C1 — what was its viability, T/C?
Marked response: 94.6

Exam item: I would be grateful if you could share the reported viability, T/C for C[C@@H](NC(=O)c1ncnc(N)c1Cl)c1ncc(C(=O)Nc2cc(C(F)(F)F)c(Cl)cn2)s1 + CCn1c(-c2cc(N3CCN(C)CC3)cnc2C(C)OC)c2c3cc(ccc31)-c1csc(n1)CC(NC(=O)C1CC1C)C(=O)N1CCCC(N1)C(=O)OCC(C)(C)C2 .
Marked response: 39.9

Exam item: Returns the measured viability, T/C for the input compound. Input: O=C(c1ccc(F)c(F)c1Nc1ccc(I)cc1F)N1CC(O)([C@@H]2CCCCN2)C1 + CCn1c(-c2cccnc2C(C)OC)c2c3cc(ccc31)N1CCOC(CC(NC(=O)C(C(C)C)N(C)C(=O)C3(F)CCN(C(=O)C#CC(C)(C)N(C)C)CC3)C(=O)N3CCCC(N3)C(=O)OCC(C)(C)C2)C1
Marked response: 45.2

Exam item: Item under review: NC1c2ccccc2OC12CCN(c1cnc3c(N4CCCc5ncccc54)n[nH]c3n1)CC2 (centres undefined) + CCn1c(-c2cc(N3CCN(C)CC3)cnc2C(C)OC)c2c3cc(ccc31)-c1csc(n1)CC(NC(=O)C1CC1C)C(=O)N1CCCC(N1)C(=O)OCC(C)(C)C2 . Reported viability, T/C?
Marked response: 35.4

Exam item: So what does the record say about viability, T/C for C[C@@H](NC(=O)c1ncnc(N)c1Cl)c1ncc(C(=O)Nc2cc(C(F)(F)F)c(Cl)cn2)s1 + CCn1c(-c2cccnc2C(C)OC)c2c3cc(ccc31)N1CCOC(CC(NC(=O)C(C(C)C)N(C)C(=O)C3(F)CCN(C(=O)C#CC(C)(C)N(C)C)CC3)C(=O)N3CCCC(N3)C(=O)OCC(C)(C)C2)C1 ?
Marked response: 111
